- EXPERIMENT_SUMMARY: Chronic vincristine toxicity in mice, with and without Cronassial
- Assay type: in vivo, Male Swiss Schneider mice
- SETTINGS: mouse, in vivo; daily injections of vincristine for 5 days, mice; read-out: LD₅₀
RECORDED_METRIC: LD50

Annotate the compound CC[C@]1(O)C[C@H]2CN(CCc3c([nH]c4ccccc34)[C@@](C(=O)OC)(c3cc4c(cc3OC)N(C=O)[C@H]3[C@@](O)(C(=O)OC)[C@H](OC(C)=O)[C@]5(CC)C=CCN6CC[C@]43[C@@H]65)C2)C1 with its measured LD50.
~0.8 mg/kg

====

- EXPERIMENT_SUMMARY: Chronic vincristine toxicity in mice, with and without Cronassial
- Assay type: in vivo, Male Swiss Schneider mice
- SETTINGS: mouse, in vivo, ip, 200 mg/kg, chronic, host SN; VCR 0.8 mg/kg ip days 1-5; in combination CRON 200 mg/kg ip days 1-5, 6hrs before VCR; read-out: SURVIVAL % at 30 d
RECORDED_METRIC: survival at 720 h

Annotate the compound CC[C@]1(O)C[C@H]2CN(CCc3c([nH]c4ccccc34)[C@@](C(=O)OC)(c3cc4c(cc3OC)N(C=O)[C@H]3[C@@](O)(C(=O)OC)[C@H](OC(C)=O)[C@]5(CC)C=CCN6CC[C@]43[C@@H]65)C2)C1 [VCR, vincristine] with its measured survival at 720 h.
62.5%
